target: HLA-A*68:01; experiment: IEDB peptide-MHC binding, purified MHC/competitive/radioactivity; filed as Kd, often an IC50 or EC50 that approximates it; bounds were set here for any values at or beyond the usual limits of such assays; conditions: source organism: Vaccinia virus Copenhagen
readoutName: pKd
Field pKd (float): negative decimal logarithm of the concentration in molar.

What measured pKd goes with "FILGIIITV" ?
5.49

###

target: HLA-A*23:01; experiment: IEDB peptide-MHC binding, purified MHC/competitive/radioactivity; filed as Kd, often an IC50 or EC50 that approximates it; bounds were set here for any values at or beyond the usual limits of such assays; details: source organism: Mammarenavirus whitewaterense
readoutName: Kd (nM)
# unit: nM | format: bare number

GET /values?readout=Kd&system=HLA-A*23:01&item= "YYGLVTEQF"
1.47

###

target: HLA-C*04:01; test: IEDB peptide-MHC binding, purified MHC/competitive/fluorescence; filed as Kd, often an IC50 or EC50 that approximates it; bounds were set here for any values at or beyond the usual limits of such assays; details: source organism: Mycobacterium tuberculosis C
pKd: −log10 of the molar value.
readoutName: pKd

GET /values?readout=pKd&system=HLA-C*04:01&item= "FVYSVSFHK"
≤ 5.30

###

target: HLA-A*02:01; assay: IEDB peptide-MHC binding, purified MHC/direct/fluorescence; filed as Kd, often an IC50 or EC50 that approximates it; bounds were set here for any values at or beyond the usual limits of such assays; conditions: source organism: Orthohantavirus andesense
pKd: −log10 of the molar value.
readoutName: pKd

GET /values?readout=pKd&system=HLA-A*02:01&item= "SLFGAAVSL"
≥ 10.00

GET /values?readout=pKd&system=HLA-A*02:01&item= "EKLKKKSAF"
≤ 4.70

###

target: HLA-A*02:11; assay: IEDB peptide-MHC binding, purified MHC/direct/fluorescence; filed as Kd, often an IC50 or EC50 that approximates it; bounds were set here for any values at or beyond the usual limits of such assays; settings: source organism: Brucella melitensis bv. 1 str. 16M
pKd: −log10 of the molar value.
readoutName: pKd

What measured pKd goes with "TTRAVNMEV" ?
≤ 4.70

###

molecular target: HLA-A*68:02; assay: IEDB peptide-MHC binding, purified MHC/competitive/radioactivity; filed as Kd, often an IC50 or EC50 that approximates it; bounds were set here for any values at or beyond the usual limits of such assays; details: source organism: Dengue virus 4 Dominica/814669/1981
readoutName: Kd (nM)
# unit: nM | format: bare number

What measured Kd goes with "WTAGADTSEV" ?
29.1

###

molecular target: HLA-A*02:03; experiment: IEDB peptide-MHC binding, purified MHC/competitive/radioactivity; filed as Kd, often an IC50 or EC50 that approximates it; bounds were set here for any values at or beyond the usual limits of such assays; settings: source organism: Dengue virus 2 Jamaica/1409/1983
readoutName: pKd
Field pKd (float): negative decimal logarithm of the concentration in molar.

What measured pKd goes with "AIMAVGMVSI" ?
7.24

What measured pKd goes with "GMNSRSTSL" ?
7.74

What measured pKd goes with "LMMATIGIA" ?
9.31

What measured pKd goes with "LLVISGVFPV" ?
7.77

What measured pKd goes with "LLATVTGGI" ?
8.44

###

target: HLA-A*03:01; assay: IEDB peptide-MHC binding, purified MHC/direct/fluorescence; filed as Kd, often an IC50 or EC50 that approximates it; bounds were set here for any values at or beyond the usual limits of such assays; conditions: source organism: Vibrio parahaemolyticus AQ3810
pKd: −log10 of the molar value.
readoutName: pKd

What measured pKd goes with "EASTWLDIF" ?
≤ 4.70

###

molecular target: HLA-A*11:01; assay: IEDB peptide-MHC binding, purified MHC/direct/fluorescence; filed as Kd, often an IC50 or EC50 that approximates it; bounds were set here for any values at or beyond the usual limits of such assays; conditions: source organism: Vibrio vulnificus
readoutName: Kd

What measured Kd goes with "LLTQSNAGF" ?
≥ 20 µM

What measured Kd goes with "DFPIFNQRY" ?
≥ 20 µM

###

target: HLA-B*51:01; test: IEDB peptide-MHC binding, purified MHC/direct/fluorescence; filed as Kd, often an IC50 or EC50 that approximates it; bounds were set here for any values at or beyond the usual limits of such assays; conditions: source organism: Burkholderia mallei ATCC 23344
pKd: −log10 of the molar value.
readoutName: pKd

What measured pKd goes with "QHAWPLPPL" ?
≤ 4.70

###

target: HLA-A*02:01; test: IEDB peptide-MHC binding, purified MHC/direct/fluorescence; filed as Kd, often an IC50 or EC50 that approximates it; bounds were set here for any values at or beyond the usual limits of such assays; conditions: source organism: Influenza A virus (A/swine/Miyagi/5/2003(H1N2))
readoutName: Kd

What measured Kd goes with "GTEKLTITY" ?
≥ 20 µM

###

biological target: HLA-B*57:01; test: IEDB peptide-MHC binding, purified MHC/competitive/fluorescence; filed as Kd, often an IC50 or EC50 that approximates it; bounds were set here for any values at or beyond the usual limits of such assays; conditions: source organism: Hantavirus HPR/02-73
readoutName: Kd

What measured Kd goes with "WKAIGAYIL" ?
≥ 20 µM

###

biological target: HLA-A*30:01; assay: IEDB peptide-MHC binding, purified MHC/competitive/radioactivity; filed as Kd, often an IC50 or EC50 that approximates it; bounds were set here for any values at or beyond the usual limits of such assays; details: source organism: Mammarenavirus whitewaterense
readoutName: Kd

What measured Kd goes with "DLGLLYTAKY" ?
≥ 58.4 µM

###

biological target: HLA-A*24:03; experiment: IEDB peptide-MHC binding, purified MHC/competitive/fluorescence; filed as Kd, often an IC50 or EC50 that approximates it; bounds were set here for any values at or beyond the usual limits of such assays; conditions: source organism: Orthomarburgvirus marburgense
readoutName: Kd

GET /values?readout=Kd&system=HLA-A*24:03&item= "GIADFIIFK"
≥ 20 µM

###

molecular target: HLA-A*02:01; experiment: IEDB peptide-MHC binding, purified MHC/competitive/radioactivity; filed as Kd, often an IC50 or EC50 that approximates it; bounds were set here for any values at or beyond the usual limits of such assays; settings: source organism: Dengue virus 2 Thailand/NGS-C/1944
readoutName: pKd
Field pKd (float): negative decimal logarithm of the concentration in molar.

What measured pKd goes with "LVISGLFPV" ?
8.53

###

biological target: HLA-A*02:02; test: IEDB peptide-MHC binding, purified MHC/competitive/radioactivity; filed as Kd, often an IC50 or EC50 that approximates it; bounds were set here for any values at or beyond the usual limits of such assays; conditions: source organism: Mammarenavirus guanaritoense
Exercise: for every item that follows, state its recorded Kd.
# unit: nM | format: bare number

What measured Kd goes with "TNAEFTFQL" ?
404

What measured Kd goes with "LCFWSAIFFT" ?
2600

###

Exercise: for every item that follows, state its recorded pKd.
biological target: HLA-B*83:01; assay: IEDB peptide-MHC binding, purified MHC/competitive/fluorescence; filed as Kd, often an IC50 or EC50 that approximates it; bounds were set here for any values at or beyond the usual limits of such assays; settings: source organism: Mycobacterium tuberculosis C
pKd: −log10 of the molar value.

What measured pKd goes with "RIRAANLPI" ?
≤ 5.30

What measured pKd goes with "FVYSVSFHK" ?
≤ 5.30

###

biological target: HLA-A*26:01; test: IEDB peptide-MHC binding, purified MHC/competitive/fluorescence; filed as Kd, often an IC50 or EC50 that approximates it; bounds were set here for any values at or beyond the usual limits of such assays; settings: source organism: Choclo virus
readoutName: Kd

What measured Kd goes with "HWMDATFNI" ?
≥ 20 µM

###

molecular target: HLA-B*07:02; experiment: IEDB peptide-MHC binding, purified MHC/direct/fluorescence; filed as Kd, often an IC50 or EC50 that approximates it; bounds were set here for any values at or beyond the usual limits of such assays; details: source organism: Orthohantavirus andesense
pKd: −log10 of the molar value.
readoutName: pKd

GET /values?readout=pKd&system=HLA-B*07:02&item= "EKLKKKSAF"
≤ 4.70

###

target: HLA-B*15:01; assay: IEDB peptide-MHC binding, purified MHC/competitive/fluorescence; filed as Kd, often an IC50 or EC50 that approximates it; bounds were set here for any values at or beyond the usual limits of such assays; conditions: source organism: Pan troglodytes
readoutName: Kd

What measured Kd goes with "YYFSYPLFV" ?
≥ 20 µM

###

molecular target: HLA-A*29:02; experiment: IEDB peptide-MHC binding, purified MHC/direct/fluorescence; filed as Kd, often an IC50 or EC50 that approximates it; bounds were set here for any values at or beyond the usual limits of such assays; conditions: source organism: Rio Mearim virus
readoutName: Kd

What measured Kd goes with "DWMERIEDF" ?
≥ 20 µM
